- Procedure Summary: NS1 protein of Zika virus - qHTS assay to identify small molecule inhibitors in human HEK 293 cells (AID 1347053);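 also: plate controls were infected untreated cells for no effect and uninfected cells for full effect; nearly all actives have a fitted effect of over 55% in size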
- Experimental Setup: HEK293 ZIKV MR766 infection, NS1 TR-FRET, 24 h; series mostly up to 46.1 µM
Inconclusive results are not listed. Activity calls are given as the source filed them. Calls follow the shape of the dose curve; as a rule, active = well fitted inhibition curve with a large enough effect; inconclusive = small, poorly fitted or top-dose-only effect; inactive = no such curve, though single readings can be large or run the other way.
Measured Attribute: outcome

query: // lookup outcome for Cn1c(=O)c2[nH]c(C3CCCC3)nc2n(C)c1=O
result: inactive

query: // lookup outcome for CNc1cc(NS(=O)(=O)c2ccc(N)cc2)nc(NC)n1
result: inactive

query: // lookup outcome for NC/C=C\C(=O)O
result: inactive

query: // lookup outcome for COc1cc2c(CCNC(C)=O)c[nH]c2cc1O
result: inactive

query: // lookup outcome for CCc1ccc2c(-c3cccc(Cl)c3)nc(=O)n(CC)c2n1
result: inactive

Parameter requested: outcome. Apply to each item below.
1. CCCn1c(=O)c2[nH]c(-c3ccc(S(=O)(=O)O)cc3)nc2n(CCC)c1=O
2. CN[C@H](CC(=O)O)C(=O)O
3. N#Cc1cc2nc(O)c(O)nc2cc1[N+](=O)[O-]

result:
inactive
inactive
inactive

Parameter requested: outcome. Apply to each item below.
1. Nc1ccc(-c2ccc3ccccc3n2)cc1
2. Cc1ccccc1/C=C/C1=NCCN1

result:
inactive
inactive

Parameter requested: outcome. Apply to each item below.
1. CC(N)=O
2. CO/N=C(\C(=O)N[C@@H]1C(=O)N2C(C(=O)O)=C(CSc3nc(=O)c(O)nn3C)CSC12)c1csc(N)n1 (stereo partly drawn)
3. NC(N)=NC(N)=Nc1ccccc1

result:
1: inactive; 2: inactive; 3: inactive

---

- Measurement Target: ATP-dependent DNA helicase Q1 (Homo sapiens) (UniProt P46063)
- Sequence (P46063 whole entry, looked up): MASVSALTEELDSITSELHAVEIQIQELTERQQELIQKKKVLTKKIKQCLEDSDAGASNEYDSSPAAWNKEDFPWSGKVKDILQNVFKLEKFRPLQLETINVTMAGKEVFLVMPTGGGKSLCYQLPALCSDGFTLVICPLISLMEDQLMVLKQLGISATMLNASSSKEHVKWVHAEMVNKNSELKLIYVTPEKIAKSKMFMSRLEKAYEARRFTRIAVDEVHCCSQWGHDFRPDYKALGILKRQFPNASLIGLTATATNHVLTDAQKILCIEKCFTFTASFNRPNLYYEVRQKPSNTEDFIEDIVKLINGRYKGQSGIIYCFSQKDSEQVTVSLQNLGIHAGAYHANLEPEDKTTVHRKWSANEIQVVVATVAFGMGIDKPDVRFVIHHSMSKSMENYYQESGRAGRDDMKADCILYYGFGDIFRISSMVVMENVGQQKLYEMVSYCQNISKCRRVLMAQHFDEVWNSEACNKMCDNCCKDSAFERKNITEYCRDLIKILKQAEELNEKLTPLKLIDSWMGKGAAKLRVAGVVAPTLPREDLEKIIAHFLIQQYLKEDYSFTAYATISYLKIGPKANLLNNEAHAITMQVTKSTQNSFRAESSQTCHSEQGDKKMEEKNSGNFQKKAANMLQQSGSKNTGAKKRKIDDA
- Procedure Summary: qHTS Validation Assay for Inhibitors of RecQ-Like Dna Helicase 1 (RECQ1) (AID 2353);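 also: plate controls were DMSO vehicle for no effect and enzyme-free control for full effect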
- Experimental Setup: recombinant RECQ1 helicase DNA unwinding assay; series mostly up to 25.6 µM
Active and inactive are the calls of the source. Calls come from the whole dose curve; as a rule, active = well fitted inhibition curve with a large enough effect; inconclusive = small, poorly fitted or top-dose-only effect; inactive = flat fitted curve, though single readings scatter.
Measured Attribute: outcome

Worked cases, outcome given:
query: // lookup outcome for CCCCOC(=O)NS(=O)(=O)c1sc(CC(C)C)cc1-c1ccc(Cn2c(CC)nc3c(C)cc(C)nc32)cc1
result: inactive

query: // lookup outcome for CCN1C(=O)C=CC1=O
result: inactive

query: // lookup outcome for COc1ccc2c(c1)c(CC(=O)O)c(C)n2Cc1ccc(Cl)cc1
result: inactive

query: // lookup outcome for c1ccc(CN2CCC3(CCCc4ccccc43)CC2)cc1
result: inactive

query: // lookup outcome for CN[C@H](CC(=O)O)C(=O)O
result: inactive

query: // lookup outcome for NC1(C(=O)O)CCCCC1
result: inactive

Parameter requested: outcome. Apply to each item below.
1. CCCN(CCc1ccccc1)C1CCc2c(O)cccc2C1 (stereo not drawn)
2. CC1CCN=C(N)S1 (stereo not drawn)
3. c1ccc(C2CN3CCSC3=N2)cc1 (stereo not drawn)
4. NC(=O)c1ccccc1
5. COc1ccccc1N1CCN(CCCCN2C(=O)c3ccccc3C2=O)CC1
6. CC(=O)/C(C)=N/O
7. O=C(O)C1=CCCN(CCON=C(c2ccccc2)c2ccccc2)C1

result:
inactive
inactive
inactive
inactive
inactive
inactive
inactive

---

- Measurement Target: D(1A) dopamine receptor (Homo sapiens) (UniProt P21728)
- Sequence (P21728 whole entry, looked up): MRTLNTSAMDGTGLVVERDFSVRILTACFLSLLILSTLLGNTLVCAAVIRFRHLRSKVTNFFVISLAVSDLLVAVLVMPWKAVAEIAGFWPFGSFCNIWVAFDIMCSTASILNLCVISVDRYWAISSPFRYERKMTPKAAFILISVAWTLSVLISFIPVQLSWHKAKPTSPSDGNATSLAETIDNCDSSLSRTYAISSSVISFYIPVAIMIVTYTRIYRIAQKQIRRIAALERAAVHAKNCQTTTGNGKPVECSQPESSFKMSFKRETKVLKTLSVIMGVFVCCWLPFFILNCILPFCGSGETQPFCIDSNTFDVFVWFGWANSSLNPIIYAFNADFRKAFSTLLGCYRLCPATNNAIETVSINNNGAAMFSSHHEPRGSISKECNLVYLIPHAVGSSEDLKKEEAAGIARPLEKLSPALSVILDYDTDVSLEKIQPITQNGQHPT
- Procedure Summary: HTS Assay for Allosteric Agonists of the Human D1 Dopamine Receptor: Primary Screen for Potentiators (AID 488982)
- Experimental Setup: HEK293 T-REx D1 inducible cells, calcium flux, kinetic fluorescence; series mostly up to 8.37 µM
Results filed as inconclusive are left out. Activity calls are given as the source filed them. The call rests on the fitted dose curve; in most records, active means well fitted activation curve with a large enough effect; inconclusive means small, poorly fitted or top-dose-only effect; inactive means no such curve, though single readings can be large or run the other way.
Response enum: active, inactive

query: Returns: the outcome recorded for COc1ccc2c(c1)c(CC(=O)O)c(C)n2C(=O)c1ccccc1 in this assay.
result: inactive

query: Returns: the outcome recorded for Cc1nc(N=Nc2ccc(C(=O)O)cc2)c(COP(=O)(O)O)c(C=O)c1O in this assay.
result: inactive

query: Returns: the outcome recorded for N=C(N)SCCN in this assay.
result: inactive

Others:
query: Returns: the outcome recorded for CSc1nc(N)c2ncn([C@@H]3O[C@H](COP(=O)(O)OP(=O)(O)O)C(O)[C@H]3O)c2n1 (stereo partly specified) in this assay.
result: active

query: Returns: the outcome recorded for O=c1cc(-c2ccccc2)[nH]c2nc(Cl)ccc12 in this assay.
result: inactive

query: Returns: the outcome recorded for N=S(=O)(O)Cc1noc2ccccc12 in this assay.
result: inactive

---

Give measured activity change, negative = inhibition for each item. Keep answers brief.
- Measurement Target: Guanidinoacetate N-methyltransferase (Homo sapiens) (UniProt Q14353)
- Procedure Summary: Confirmatory Screen for Target Class Profiling of Small Molecule Inhibitors of Methyltransferases (AID 1745852); also: % is scaled to controls: 0 for no effect and ±100 for the full control effect
- Experimental Setup: MTase-Glo luminescence, SAH detection, recombinant enzyme; at 57.3 µM (top of the series)
Give bare numbers, in %.

Worked cases, activity change, negative = inhibition given:
query: // lookup activity change, negative = inhibition for O=C(O)/C=C/c1ccc(O)c(O)c1
result: 0.674

query: // lookup activity change, negative = inhibition for Clc1nccc2c1ccc1ccccc12
result: 3.35

query: // lookup activity change, negative = inhibition for C=CCN1CCc2cc(O)c(O)cc2C(c2ccccc2)C1 (centres undefined)
result: 8.51

query: // lookup activity change, negative = inhibition for CC(O)C(O)[C@H]1CNc2nc(N)[nH]c(=O)c2N1 (some centres undefined)
result: 4.12

query: // lookup activity change, negative = inhibition for Nc1ccc2c3c(cccc13)C(=O)NC2=O
result: 4.2

query: // lookup activity change, negative = inhibition for NS(=O)(=O)c1cccc2c1c([N+](=O)[O-])cc1nc(O)c(O)nc12
result: 0.0632

query: // lookup activity change, negative = inhibition for Cn1c(=O)c2[nH]c(-c3ccc(S(=O)(=O)O)cc3)nc2n(C)c1=O
result: 1.75

query: // lookup activity change, negative = inhibition for O=c1[nH]ccc2c(O)cccc12
result: 2.16

Parameter requested: activity change, negative = inhibition. Apply to each item below.
1. O=C(O)Cc1ccc(O)c(O)c1
2. Oc1cc(O)c2c(c1)O[C@H](c1ccc(O)c(O)c1)[C@@H](O)C2
3. Fc1ccc(CN(C2=NCCN2)c2c(Cl)cccc2Cl)cc1
4. CNCCc1cnc(CCC(c2ccccc2)c2ccccc2)[nH]1
5. C=CCN1CCc2c(cc(O)c(O)c2Cl)C(c2ccccc2)C1 (centres undefined)
6. C=CCN1CCc2c(cc(O)c(O)c2Br)[C@@H](c2ccccc2)C1

result:
1: 5.19; 2: 4.5; 3: 6.96; 4: 3.35; 5: 5.83; 6: 5.44

---

- Measurement Target: Glutaminase kidney isoform, mitochondrial (Homo sapiens)
- Procedure Summary: qHTS for Inhibitors of Glutaminase (GLS): LOPAC Validation (AID 624146); also: nearly all actives have a fitted effect of over 60% in size
- Experimental Setup: glutaminase enzyme activity inhibition; series mostly up to 46.1 µM
Results filed as inconclusive are left out. Activity calls are given as the source filed them. Calls come from the whole dose curve; as a rule, active = well fitted inhibition curve with a large enough effect; inconclusive = small, poorly fitted or top-dose-only effect; inactive = no such curve, though single readings can be large or run the other way.
Response enum: true (1) (active), false (0) (inactive)

Past entries and their recorded results:
query: Returns: the outcome recorded for CCN1C(=O)C=CC1=O in this assay.
result: false (0)

query: Returns: the outcome recorded for COc1ccc(CCn2nnnc2C2(c3ccc(C)cc3)CC2)cc1 in this assay.
result: false (0)

query: Returns: the outcome recorded for c1ccc(CN2CCC3(CCCc4ccccc43)CC2)cc1 in this assay.
result: false (0)

query: Returns: the outcome recorded for CN1CCCC1CCOC(C)(c1ccccc1)c1ccc(Cl)cc1 (stereo not given) in this assay.
result: false (0)

query: Returns: the outcome recorded for CC(C)(C)NCC(O)COc1cccc2[nH]c(=O)[nH]c12 (stereo not given) in this assay.
result: false (0)

query: Returns: the outcome recorded for NC1(C(=O)O)CCc2cc(C(=O)O)ccc21 (stereo not given) in this assay.
result: false (0)

query: Returns: the outcome recorded for NC(=O)CC[C@H](N)C(=O)O in this assay.
result: false (0)

query: Returns: the outcome recorded for CCCn1c(=O)c2[nH]c(-c3ccc(S(=O)(=O)O)cc3)nc2n(CCC)c1=O in this assay.
result: false (0)

query: Returns: the outcome recorded for CCCOC(=O)c1c(-c2ccccc2)nc(CC)c(C(=O)SCC)c1CCC in this assay.
result: false (0)

query: Returns: the outcome recorded for COc1cc(/C=C(\C#N)C(=O)Nc2nnc(C(F)(F)F)s2)ccc1OCc1ccc(C(F)(F)F)cc1C(F)(F)F in this assay.
result: false (0)

Others:
query: Returns: the outcome recorded for NC(=O)c1cc[n+](CC2=C(C(=O)O)N3C(=O)[C@@H](NC(=O)[C@@H](c4ccccc4)S(=O)(=O)[O-])[C@H]3SC2)cc1 in this assay.
result: false (0)

query: Returns: the outcome recorded for CCCCCCC/C=C\CCCCCCCCC(=O)O in this assay.
result: false (0)

query: Returns: the outcome recorded for N[C@@H](CS(=O)O)C(=O)O in this assay.
result: false (0)

query: Returns: the outcome recorded for N[C@H]1CONC1=O in this assay.
result: false (0)

query: Returns: the outcome recorded for O=C(O)C1=CCCNC1 in this assay.
result: false (0)

query: Returns: the outcome recorded for COc1cc(C(O)C(=O)O)ccc1O (stereo not given) in this assay.
result: true (1)

query: Returns: the outcome recorded for CSC(=N)N in this assay.
result: false (0)

query: Returns: the outcome recorded for COc1ccc2c(c1)CCC1C2CC[C@@]2(C)C1CC[C@@H]2NCCCCCCN1C(=O)C=CC1=O (stereo not given in full) in this assay.
result: false (0)

query: Returns: the outcome recorded for NC1C=CC=C(C(=O)O)C1 (stereo not given) in this assay.
result: false (0)

query: Returns: the outcome recorded for CC[C@@H]1Cc2cc(O)ccc2C2=C1c1ccc(O)cc1C[C@H]2CC in this assay.
result: true (1)

query: Returns: the outcome recorded for CC[C@H](NC(=O)c1c(C)c(-c2ccccc2)nc2ccccc12)c1ccccc1 in this assay.
result: false (0)

query: Returns: the outcome recorded for O=S(=O)(c1cccc2c(Cl)cccc12)N1CCCNCC1 in this assay.
result: false (0)

query: Returns: the outcome recorded for NCC(O)c1ccc(O)c(O)c1 (stereo not given) in this assay.
result: false (0)

query: Returns: the outcome recorded for CCCn1c(=O)c(C)cn2nc(N)nc12 in this assay.
result: false (0)

query: Returns: the outcome recorded for CC(C)C[C@H](NC(=O)C1OC1C(=O)O)C(=O)NCCCCN=C(N)N (stereo not given in full) in this assay.
result: false (0)
